Target: IDH1-R132H recombinant protein (Homo sapiens (Human), UniProt O75874, R132H)
Sequence (O75874 whole entry R132H): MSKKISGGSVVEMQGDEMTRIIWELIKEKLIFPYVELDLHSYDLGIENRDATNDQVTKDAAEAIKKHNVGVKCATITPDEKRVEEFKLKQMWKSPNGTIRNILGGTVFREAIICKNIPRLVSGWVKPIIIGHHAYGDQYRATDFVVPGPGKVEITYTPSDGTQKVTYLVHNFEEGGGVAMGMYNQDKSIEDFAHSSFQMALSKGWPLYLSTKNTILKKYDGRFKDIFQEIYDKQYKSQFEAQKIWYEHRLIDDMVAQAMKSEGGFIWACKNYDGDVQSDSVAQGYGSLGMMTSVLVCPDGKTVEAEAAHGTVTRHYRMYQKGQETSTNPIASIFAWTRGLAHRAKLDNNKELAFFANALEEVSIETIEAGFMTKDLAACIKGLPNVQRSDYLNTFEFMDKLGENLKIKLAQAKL
Test: IDH1-R132H enzymatic assay (inhibition of NADPH consumption, diaphorase/resazurin readout)
Conditions: read-out: Enzyme IDH1 R132H IC50 (Range)
Observation Type: IC50

As a guide, the following entries are already answered.
- Compound: "COc1nc(N[C@@H](C)c2cc3cc(Cl)ccc3[nH]c2=O)ncc1C#N"
  System Name: "IDH1-R132H recombinant protein (Homo sapiens (Human), UniProt O75874, R132H)"
  IC50: "< 100 nM"
- Compound: "C[C@H](Nc1nccc(NC(=O)CC2CCOCC2)n1)c1cc2cc(Cl)ccc2[nH]c1=O"
  System Name: "IDH1-R132H recombinant protein (Homo sapiens (Human), UniProt O75874, R132H)"
  IC50: "100 to 1000 nM"
- Compound: "COc1nc(NC(C)c2cc3cc(Cl)c(OCC4CC(F)(F)C4)cc3[nH]c2=O)ncc1C#N (centres unmarked)"
  System Name: "IDH1-R132H recombinant protein (Homo sapiens (Human), UniProt O75874, R132H)"
  IC50: "< 100 nM"

Query: I am curious: what IC50 value has been reported for "CC(C)CS(=O)(=O)N(c1ccnc(N[C@@H](C)c2cc3cc(Cl)ccc3[nH]c2=O)n1)C(C)C" ?
Result: < 100 nM

Query: Give its IC50 value. Item: "C[C@H](Nc1nccc(-c2cncnc2)n1)c1cc2cc(Cl)ccc2[nH]c1=O"
Result: 1000 to 10000 nM

Query: Using the record for "C[C@H](Nc1nccc(N(CC(C)(C)O)S(C)(=O)=O)n1)c1cc2cc(Cl)ccc2[nH]c1=O" , report its IC50.
Result: 1000 to 10000 nM

Query: Would you kindly share the measured IC50 for "CCC(=O)Nc1ccnc(N[C@@H](C)c2cc3cc(Cl)ccc3[nH]c2=O)n1" ?
Result: < 100 nM

Query: State the recorded IC50 for this entry: COc1nc(NC(C)c2cc3cc(Cl)c(F)cc3[nH]c2=O)ncc1C#N (centres unmarked)
Result: < 100 nM
